Tested on: Escherichia coli
protocol.summary: Antibiofilm activity against Escherichia coli O157:H7 assessed as induction of motB gene expression at 20 ug/ml after 5 hrs by qRT-PCR analysis
Type: functional, organism-based
Active and inactive are the calls of the source. The calls are words filed in the database; no cut-off is given here.
Classes used: 1 (yes) for active, 0 (no) for inactive

>  <molecule>
Oc1ccc([C@H]2c3c(O)cc(O)cc3[C@@H]3c4c(cc(O)c5c4[C@@H]2[C@@H](c2ccc(O)cc2)[C@@H]5c2cc(O)cc(O)c2)O[C@@H]3c2ccc(O)cc2)cc1 (relative stereo)

>  <assigned.class>
0 (no)

$$$$
>  <molecule>
Oc1ccc([C@H]2c3c(O)cc(O)cc3[C@H]3c4c(cc(O)cc4[C@@H]2c2cc(/C=C/c4cc(O)cc5c4[C@H](c4cc(O)cc(O)c4)[C@@H](c4ccc(O)cc4)O5)ccc2O)O[C@@H]3c2ccc(O)cc2)cc1

>  <assigned.class>
0 (no)

$$$$
>  <molecule>
Oc1ccc([C@H]2Oc3cc(O)cc(/C=C/c4ccc5c(c4)[C@@H](c4cc(O)cc6c4[C@H](c4cc(O)cc(O)c4)[C@@H](c4ccc(O)cc4)O6)[C@H](c4ccc(O)cc4)O5)c3[C@@H]2c2cc(O)cc(O)c2)cc1

>  <assigned.class>
1 (yes)

$$$$
>  <molecule>
Oc1ccc(/C=C/c2cc(O)cc3c2[C@@H](c2cc(O)cc(O)c2)[C@H](c2ccc(O)cc2)O3)cc1

>  <assigned.class>
0 (no)

$$$$
>  <molecule>
Oc1ccc([C@@H]2c3c(O)cc(O)cc3[C@@H]3c4c(cc(O)c5c4[C@@H]2[C@@H](c2ccc(O)cc2)[C@@H]5c2cc(O)cc(O)c2)O[C@@H]3c2ccc(O)cc2)cc1 (relative stereo)

>  <assigned.class>
0 (no)

$$$$

###

System: Escherichia coli
protocol.summary: Antibiofilm activity against Escherichia coli O157:H7 after 24 hrs by spectrophotometry
Type: functional, organism-based
The source made the active and inactive calls. No cut-off for these calls is given here.
Outcomes: active, inactive

>  <compound>
Oc1ccc(/C=C/c2cc(O)cc3c2[C@@H](c2cc(O)cc(O)c2)[C@H](c2ccc(O)cc2)O3)cc1 [EPSILON-VINIFERIN]

>  <assigned.class>
active

$$$$
>  <compound>
Oc1ccc([C@H]2c3c(O)cc(O)cc3[C@H]3c4c(cc(O)cc4[C@@H]2c2cc(/C=C/c4cc(O)cc5c4[C@H](c4cc(O)cc(O)c4)[C@@H](c4ccc(O)cc4)O5)ccc2O)O[C@@H]3c2ccc(O)cc2)cc1 [VITISIN A]

>  <assigned.class>
inactive

$$$$
>  <compound>
Oc1ccc([C@@H]2c3c(O)cc(O)cc3[C@@H]3c4c(cc(O)c5c4[C@@H]2[C@@H](c2ccc(O)cc2)[C@@H]5c2cc(O)cc(O)c2)O[C@@H]3c2ccc(O)cc2)cc1 (relative stereo)

>  <assigned.class>
active

$$$$
>  <compound>
Oc1ccc([C@H]2c3c(O)cc(O)cc3[C@@H]3c4c(cc(O)c5c4[C@@H]2[C@@H](c2ccc(O)cc2)[C@@H]5c2cc(O)cc(O)c2)O[C@@H]3c2ccc(O)cc2)cc1 (relative stereo)

>  <assigned.class>
active

$$$$
>  <compound>
Oc1ccc([C@H]2Oc3cc(O)cc(/C=C/c4ccc5c(c4)[C@@H](c4cc(O)cc6c4[C@H](c4cc(O)cc(O)c4)[C@@H](c4ccc(O)cc4)O6)[C@H](c4ccc(O)cc4)O5)c3[C@@H]2c2cc(O)cc(O)c2)cc1 [VITISIN B]

>  <assigned.class>
active

$$$$
>  <compound>
Oc1ccc(/C=C/c2cc(O)cc(O)c2)cc1 [RESVERATROL]

>  <assigned.class>
active

$$$$

###

Tested on: Pseudomonas aeruginosa
protocol.summary: Antibiofilm activity against Pseudomonas aeruginosa PA14 after 24 hrs by GFP-based confocal laser microscopy
Type: functional, organism-based
Active and inactive are the calls of the source. No cut-off for these calls is given here.
assay.endpoint: inhibition

>  <smiles.input>
Oc1ccc([C@H]2Oc3cc(O)cc(/C=C/c4ccc5c(c4)[C@@H](c4cc(O)cc6c4[C@H](c4cc(O)cc(O)c4)[C@@H](c4ccc(O)cc4)O6)[C@H](c4ccc(O)cc4)O5)c3[C@@H]2c2cc(O)cc(O)c2)cc1

>  <assay.endpoint>
inhibition

>  <test.result>
Active

$$$$
>  <smiles.input>
Oc1ccc([C@H]2c3c(O)cc(O)cc3[C@H]3c4c(cc(O)cc4[C@@H]2c2cc(/C=C/c4cc(O)cc5c4[C@H](c4cc(O)cc(O)c4)[C@@H](c4ccc(O)cc4)O5)ccc2O)O[C@@H]3c2ccc(O)cc2)cc1

>  <assay.endpoint>
inhibition

>  <test.result>
Active

$$$$

###

Test system: Pseudomonas aeruginosa
protocol.summary: Antibiofilm activity against Pseudomonas aeruginosa PA14 after 24 hrs by GFP-based confocal laser microscopy
Type: functional, organism-based
Activity calls are given as the source filed them. The rule behind the calls is not given here.

>  <compound>
Oc1ccc([C@H]2c3c(O)cc(O)cc3[C@@H]3c4c(cc(O)c5c4[C@@H]2[C@@H](c2ccc(O)cc2)[C@@H]5c2cc(O)cc(O)c2)O[C@@H]3c2ccc(O)cc2)cc1 (relative stereo)

>  <inhibition>
Active

$$$$
>  <compound>
Oc1ccc(/C=C/c2cc(O)cc(O)c2)cc1 [RESVERATROL]

>  <inhibition>
Active

$$$$
>  <compound>
Oc1ccc([C@@H]2c3c(O)cc(O)cc3[C@@H]3c4c(cc(O)c5c4[C@@H]2[C@@H](c2ccc(O)cc2)[C@@H]5c2cc(O)cc(O)c2)O[C@@H]3c2ccc(O)cc2)cc1 (relative stereo)

>  <inhibition>
Active

$$$$

###

Test system: Escherichia coli
protocol.summary: Antibiofilm activity against Escherichia coli O157:H7 assessed as induction of fliA gene expression at 20 ug/ml after 5 hrs by qRT-PCR analysis
Format: functional, organism-based
The source made the active and inactive calls. The rule behind the calls is not given here.
Outcomes: 1 for active, -1 for inactive

>  <compound>
Oc1ccc([C@@H]2c3c(O)cc(O)cc3[C@@H]3c4c(cc(O)c5c4[C@@H]2[C@@H](c2ccc(O)cc2)[C@@H]5c2cc(O)cc(O)c2)O[C@@H]3c2ccc(O)cc2)cc1 (relative stereo)

>  <assigned.class>
-1

$$$$
>  <compound>
Oc1ccc(/C=C/c2cc(O)cc3c2[C@@H](c2cc(O)cc(O)c2)[C@H](c2ccc(O)cc2)O3)cc1

>  <assigned.class>
-1

$$$$
>  <compound>
Oc1ccc([C@H]2Oc3cc(O)cc(/C=C/c4ccc5c(c4)[C@@H](c4cc(O)cc6c4[C@H](c4cc(O)cc(O)c4)[C@@H](c4ccc(O)cc4)O6)[C@H](c4ccc(O)cc4)O5)c3[C@@H]2c2cc(O)cc(O)c2)cc1

>  <assigned.class>
1

$$$$
>  <compound>
Oc1ccc([C@H]2c3c(O)cc(O)cc3[C@H]3c4c(cc(O)cc4[C@@H]2c2cc(/C=C/c4cc(O)cc5c4[C@H](c4cc(O)cc(O)c4)[C@@H](c4ccc(O)cc4)O5)ccc2O)O[C@@H]3c2ccc(O)cc2)cc1

>  <assigned.class>
-1

$$$$
>  <compound>
Oc1ccc([C@H]2c3c(O)cc(O)cc3[C@@H]3c4c(cc(O)c5c4[C@@H]2[C@@H](c2ccc(O)cc2)[C@@H]5c2cc(O)cc(O)c2)O[C@@H]3c2ccc(O)cc2)cc1 (relative stereo)

>  <assigned.class>
-1

$$$$

###

Test system: Escherichia coli
protocol.summary: Antibiofilm activity against Escherichia coli O157:H7 assessed as induction of qseB gene expression at 20 ug/ml after 5 hrs by qRT-PCR analysis
Type: functional, organism-based
Calls of active or inactive are those of the source. The calls are words filed in the database; no cut-off is given here.
Possible outcomes: active, inactive

>  <compound>
Oc1ccc([C@H]2Oc3cc(O)cc(/C=C/c4ccc5c(c4)[C@@H](c4cc(O)cc6c4[C@H](c4cc(O)cc(O)c4)[C@@H](c4ccc(O)cc4)O6)[C@H](c4ccc(O)cc4)O5)c3[C@@H]2c2cc(O)cc(O)c2)cc1 [VITISIN B]

>  <assigned.class>
active

$$$$
>  <compound>
Oc1ccc(/C=C/c2cc(O)cc3c2[C@@H](c2cc(O)cc(O)c2)[C@H](c2ccc(O)cc2)O3)cc1 [EPSILON-VINIFERIN]

>  <assigned.class>
inactive

$$$$
>  <compound>
Oc1ccc([C@@H]2c3c(O)cc(O)cc3[C@@H]3c4c(cc(O)c5c4[C@@H]2[C@@H](c2ccc(O)cc2)[C@@H]5c2cc(O)cc(O)c2)O[C@@H]3c2ccc(O)cc2)cc1 (relative stereo)

>  <assigned.class>
inactive

$$$$
>  <compound>
Oc1ccc([C@H]2c3c(O)cc(O)cc3[C@@H]3c4c(cc(O)c5c4[C@@H]2[C@@H](c2ccc(O)cc2)[C@@H]5c2cc(O)cc(O)c2)O[C@@H]3c2ccc(O)cc2)cc1 (relative stereo)

>  <assigned.class>
inactive

$$$$
>  <compound>
Oc1ccc([C@H]2c3c(O)cc(O)cc3[C@H]3c4c(cc(O)cc4[C@@H]2c2cc(/C=C/c4cc(O)cc5c4[C@H](c4cc(O)cc(O)c4)[C@@H](c4ccc(O)cc4)O5)ccc2O)O[C@@H]3c2ccc(O)cc2)cc1 [VITISIN A]

>  <assigned.class>
inactive

$$$$
